The reported numbers originate from the array DNA melting data of Ke et al. (doi:10.1101/2024.01.08.574731).

Please provide measured folding enthalpy for the entries that follow.
test: folding enthalpy; higher = less favourable; fluorescence melt of hairpins on a sequencing array, two-state fit; settings: sodium 0.088 M
Express the result in kcal/mol but write the number alone.

Inquiry: Name the recorded folding enthalpy for GACAAGGGAAACTTTGTC (((((.(....).))))) .
Reply text: -27.1

Inquiry: Name the recorded folding enthalpy for GCTCGCGAAAGCGGTAGC ((((((....)))..))) .
Reply text: -15.4

Inquiry: Name the recorded folding enthalpy for GTTGGTGGAAACACTAAC (((.(((....))).))) .
Reply text: -29.6

Inquiry: Name the recorded folding enthalpy for GCGGACCCCCGC ((((....)))) .
Reply text: -34.6

Inquiry: Name the recorded folding enthalpy for GAATTGAAAAATTC (((((....))))) .
Reply text: -13.5

Inquiry: Name the recorded folding enthalpy for GGGGATCGAAAGATACCC (((.(((....))).))) .
Reply text: -43.2

Inquiry: Name the recorded folding enthalpy for GATCTACTCATAGATC ((((((....)))))) .
Reply text: -35.5

Inquiry: Name the recorded folding enthalpy for GACGCGGGAAACCGTGTC (((.(((....))).))) .
Reply text: -39.4

Inquiry: Name the recorded folding enthalpy for GATCAACTTTTTGATC ((((((....)))))) .
Reply text: -37.8

Inquiry: Name the recorded folding enthalpy for TTGAGGAAACTCAA (((((....))))) .
Reply text: -15.6

Inquiry: Name the recorded folding enthalpy for GTCCCTACGAAAGTAGAC (((..(((....)))))) .
Reply text: -9.91

Inquiry: Name the recorded folding enthalpy for GAGTTCCGAAAGGACTC (((.(((....)))))) .
Reply text: -22.1

Inquiry: Name the recorded folding enthalpy for GCTCAACGAAAGTTAGC (((.(((....)))))) .
Reply text: -22.2

Inquiry: Name the recorded folding enthalpy for GATCAAACGTTTGATC ((((((....)))))) .
Reply text: -41.4

Inquiry: Name the recorded folding enthalpy for GGAAACGGAAACGTCTCC (((.(((....))).))) .
Reply text: -23.6

Inquiry: Name the recorded folding enthalpy for CGATAGCGGAAACGCTCG (((..(((....)))))) .
Reply text: -13.9

Inquiry: Name the recorded folding enthalpy for GCGAAACTTCGC ((((....)))) .
Reply text: -19.9

Inquiry: Name the recorded folding enthalpy for GACTCTGGAAACAGAATC ((.((((....)))).)) .
Reply text: -22.3

Inquiry: Name the recorded folding enthalpy for GGCAAACGAAAGTTGCC (((.(((....)))))) .
Reply text: -33.3

Inquiry: Name the recorded folding enthalpy for CGTCCGGAAACGGGCACG ((((((....)))..))) .
Reply text: -12.4

Inquiry: Name the recorded folding enthalpy for GCTTTTCCGAAAGGAAGC (((..(((....)))))) .
Reply text: -10.7

Inquiry: Name the recorded folding enthalpy for GTGGTTGGAAACGACTAC ((.((.(....).)).)) .
Reply text: -25.7

Inquiry: Name the recorded folding enthalpy for GCCTGTGGAAACACGGGC (((.(((....))).))) .
Reply text: -41

Inquiry: Name the recorded folding enthalpy for GTCGGGACGAAAGTCGAC (((..(((....)))))) .
Reply text: -18.9

Inquiry: Name the recorded folding enthalpy for GAATCCGGAAACGAATTC ((((.((....)).)))) .
Reply text: -21.1

Inquiry: Name the recorded folding enthalpy for GATCTTATCCAAGATC ((((((....)))))) .
Reply text: -31.6

Inquiry: Name the recorded folding enthalpy for GAGCCCGGAAACGGACCC (.(.(((....))).).) .
Reply text: -11.2

Inquiry: Name the recorded folding enthalpy for GATCCTGGCTAGGATC ((((((....)))))) .
Reply text: -38.3

Inquiry: Name the recorded folding enthalpy for GAAAAGGGAAACCCTTTC ((((.((....)).)))) .
Reply text: -17

Inquiry: Name the recorded folding enthalpy for GAGCGAGCGAAAGCTCTC (((..(((....)))))) .
Reply text: -8.27

Inquiry: Name the recorded folding enthalpy for CGACCGGAAACGGGCTCG ((((((....)))..))) .
Reply text: -12.1

Inquiry: Name the recorded folding enthalpy for GAAGTTGAAAAACTTC ((((((....)))))) .
Reply text: -28.1

Inquiry: Name the recorded folding enthalpy for GTTGCACGAAAGTGTAAC (((.(((....))).))) .
Reply text: -29.8

Inquiry: Name the recorded folding enthalpy for CGTCCGGAAACGGATACG ((((((....)))..))) .
Reply text: -18.1

Inquiry: Name the recorded folding enthalpy for CGTGCGGAAACGCCTACG ((((((....)))..))) .
Reply text: -15.3

Inquiry: Name the recorded folding enthalpy for CGAATGAAAATTCG (((((....))))) .
Reply text: -22.5

Inquiry: Name the recorded folding enthalpy for GACCCTGGAAACAGGATC ((.((((....)))).)) .
Reply text: -21.8

Inquiry: Name the recorded folding enthalpy for GTGGATCGAAAGATGCAC (((.(((....))).))) .
Reply text: -45.9

Inquiry: Name the recorded folding enthalpy for GCGTTGCGAAAGCAGAGC ((..(((....)))..)) .
Reply text: -35.8

Inquiry: Name the recorded folding enthalpy for GACTCAACGAAAGTTGTC (((..(((....)))))) .
Reply text: -10.2

Inquiry: Name the recorded folding enthalpy for GCACGGTCGAAAGACTGC (((..(((....)))))) .
Reply text: -13.9

Inquiry: Name the recorded folding enthalpy for GGGCCTCGAAAGAGCCCC (((.(((....))).))) .
Reply text: -15.7

Inquiry: Name the recorded folding enthalpy for CGCCAGAAATGGCG (((((....))))) .
Reply text: -31.5

Inquiry: Name the recorded folding enthalpy for GATCACGAAAGTGGTATC ((((((....)))..))) .
Reply text: -13.5

Inquiry: Name the recorded folding enthalpy for GGAAACGAAAGTTTTTCC ((((((....)))..))) .
Reply text: -10.8

Inquiry: Name the recorded folding enthalpy for GTAAGGCGAAAGCCATAC (((.(((....))).))) .
Reply text: -15.3

Inquiry: Name the recorded folding enthalpy for GAGCATCCGAAAGGACTC (((..(((....)))))) .
Reply text: -10.8

Inquiry: Name the recorded folding enthalpy for GCTCAGCGAAAGCGGCGC ((.(.((....)).).)) .
Reply text: -19.5

Inquiry: Name the recorded folding enthalpy for GATCCGAGCTCGGATC ((((((....)))))) .
Reply text: -37.3

Inquiry: Name the recorded folding enthalpy for GATCCGAAGTCGGATC ((((((....)))))) .
Reply text: -39.9
